target: CYP3A4/5 (Homo sapiens, UniProt P08684+P20815); test: in vitro; conditions: liver microsomes, probe testosterone
PARAMETER: pIC50
Remember, pIC50 is on a log scale: it is -log10 of the molar concentration.

### Prompt What value of pIC50 has been reported for the following compound? Cc1c(Cc2ccc(C(F)(F)F)nc2)c[nH]c1C(=O)NC1CC1
### Response 5.26

====

molecular target: CYP3A4/5 (Homo sapiens, UniProt P08684+P20815); assay: in vitro; conditions: liver microsomes, probe midazolam
PARAMETER: IC50

### Prompt # value lookup — system CYP3A4/5 (Homo sapiens, UniProt P08684+P20815), readout IC50, item Cc1c(Cc2ccc(C(F)(F)F)nc2)c[nH]c1C(=O)NC1CC1
### Response > 20 µM

====

experiment: physchem; conditions: fasted state simulated gastric fluid, pH 1.6
PARAMETER: solubility (µg/mL)
Unit µg/mL implied. Number only.

### Prompt Please report the recorded solubility for Cc1cc(Nc2ccc(S(F)(F)(F)(F)F)cc2)n2nc(C(C)(F)F)nc2n1 .
### Response 6.8

====

test: Apparent half life in Sprague-Dawley rat at […], iv administered as infusion for 10 mins and measured up to 24 hrs by LC-MS analysis; format: ADME, organism-based; settings: in vivo, read-out: t1/2(app) (converted)
PARAMETER: half-life (min)
Give the quantity in min, number only.

### Prompt Which half-life is reported for this molecule? Cc1c(Cc2ccc(C(F)(F)F)nc2)c[nH]c1C(=O)NC1CC1
### Response 876

====

molecular target: Albumin (Homo sapiens, UniProt P02768); experiment: Binding affinity to albumin (unknown origin) by chromatographic method; assay type: ADME; details: albumin, read-out: PB (converted)
Sequence (P02768 whole entry): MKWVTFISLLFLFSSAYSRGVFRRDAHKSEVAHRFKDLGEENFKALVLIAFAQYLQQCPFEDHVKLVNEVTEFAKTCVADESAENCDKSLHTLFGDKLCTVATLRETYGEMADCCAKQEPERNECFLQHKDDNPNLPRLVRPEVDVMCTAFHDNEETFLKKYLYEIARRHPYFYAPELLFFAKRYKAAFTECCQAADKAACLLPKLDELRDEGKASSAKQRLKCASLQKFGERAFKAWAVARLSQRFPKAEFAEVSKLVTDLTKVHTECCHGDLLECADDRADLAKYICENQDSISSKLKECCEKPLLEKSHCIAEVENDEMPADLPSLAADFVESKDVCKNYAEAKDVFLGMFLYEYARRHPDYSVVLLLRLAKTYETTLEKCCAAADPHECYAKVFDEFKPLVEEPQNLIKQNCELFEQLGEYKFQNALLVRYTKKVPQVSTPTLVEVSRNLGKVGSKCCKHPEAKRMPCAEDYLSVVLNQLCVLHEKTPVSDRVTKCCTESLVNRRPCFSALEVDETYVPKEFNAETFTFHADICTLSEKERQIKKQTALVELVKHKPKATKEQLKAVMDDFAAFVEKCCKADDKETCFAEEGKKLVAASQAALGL
PARAMETER: fraction unbound
Number only, no unit.

### Prompt For Cc1c(Cc2cccnc2)c[nH]c1C(=O)NC1CC1 , what is its reported fraction unbound?
### Response 0.268

### Prompt Name the recorded fraction unbound for Cc1[nH]c(C(=O)NC2CC2)c(C)c1Oc1ccc(C(F)(F)F)nc1 .
### Response 0.573

### Prompt Fill in: fraction unbound of Cc1[nH]c(C(=O)N2CCCCC2)cc1Cc1ccc(C(F)(F)F)nc1 is ___
### Response 0.125

### Prompt I'd like to know its fraction unbound. The molecule in question is Cc1c(Cc2ccc(C(F)(F)F)nc2)c[nH]c1C(=O)NC1CC1
### Response 0.238

### Prompt Reported fraction unbound, molecule CCCNC(=O)c1[nH]c(C)c(Cc2ccc(C(F)(F)F)nc2)c1C : ____
### Response 0.155

### Prompt Item Cc1c(Cc2ccc(C(F)(F)F)nc2)c[nH]c1C(=O)N1CC(F)(F)C1 has what recorded fraction unbound?
### Response 0.251

====

assay: Intrinsic clearance in mouse liver microsomes assessed as per mg protein; assay type: ADME, Microsome; conditions: microsomes
I'd appreciate it if you could supply microsomal CLint values for the items below.
State the answer as a number, implicitly in µL/min/mg.

### Prompt For the compound Cc1[nH]c(C(=O)NC2CC2)cc1Cc1cnc(C(F)(F)F)nc1 , what microsomal CLint is on record?
### Response 8

### Prompt Which microsomal CLint is reported for this compound? Cc1c(Cc2ccc(C(F)(F)F)nc2)c[nH]c1C(=O)N1CCC1
### Response 192

### Prompt Which microsomal CLint value belongs to Cc1c(Cc2ccc(C(F)(F)F)nc2)c[nH]c1C(=O)NCC(F)(F)F ?
### Response 57

### Prompt Find the recorded microsomal CLint belonging to Cc1c(Cc2ccc(C(F)(F)F)nc2)c[nH]c1C(=O)N1CC(F)C1 and report it.
### Response 145

### Prompt Need microsomal CLint of Cc1[nH]c(C(=O)NC2CC2)cc1Cc1ccc(C(F)(F)F)nc1 , thanks.
### Response 41
